Reference source for all entries: patent US8198302B2

Test System: Horseradish peroxidase (HRP) (Armoracia rusticana, UniProt P00433)
Construct: purchased Sigma P6782
Sequence (P00433 31-338 limits assumed): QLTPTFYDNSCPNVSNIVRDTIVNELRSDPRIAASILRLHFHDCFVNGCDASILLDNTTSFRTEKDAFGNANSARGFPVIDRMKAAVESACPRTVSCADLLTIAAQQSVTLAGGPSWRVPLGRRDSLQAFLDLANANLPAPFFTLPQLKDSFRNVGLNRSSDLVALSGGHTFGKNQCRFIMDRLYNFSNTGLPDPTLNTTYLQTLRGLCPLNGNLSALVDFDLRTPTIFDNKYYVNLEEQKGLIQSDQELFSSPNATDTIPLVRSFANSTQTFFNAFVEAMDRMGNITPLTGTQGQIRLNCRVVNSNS
Assay Name: Peroxidase-mediated activation of catechols (HPLC loss of peak area)
Assay type: biochemical
Assay Setup: relative to non-catechol control = 100
Would you please tag the item Y when its Relative Activation (% Control) is 0.03 % Control or above, and N when it is below?

1. CCc1ccc(/C=C\c2cc(OC)c(OC)c(OC)c2)c(O)c1O [ZSB-76] : Y
2. COc1cc(/C=C\c2cc(-c3ccccc3)cc(O)c2O)cc(OC)c1OC [ZSB-80] : N
3. C=CCc1ccc(/C=C\c2cc(OC)c(OC)c(OC)c2)c(O)c1O [ZSB-77] : Y
4. COc1cc(/C=C\c2cc(Br)cc(O)c2O)cc(OC)c1OC [ZSB-74] : Y
5. COc1cc(/C=C\c2cccc(O)c2O)cc(OC)c1OC [ZSB-82] : N
6. COc1cc(/C=C\c2ccc(F)c(O)c2O)cc(OC)c1OC : N
7. COc1cc(/C=C\c2ccc(C)c(O)c2O)cc(OC)c1OC [ZSB-75] : Y
